- measurement description: protein stability index of a GFP-peptide fusion (GPS, HEK-293T) (PSI 1-6); higher = more stable;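 note: 24-mer peptide tiles fused after GFP, lentivirally expressed, FACS-sorted into six equal bins by GFP/DsRed ratio, decoded by Illumina sequencing, PSI is the read-weighted mean bin number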
- condition details: treatment: MLN4924 1 uM, 8 h; c terminus: a fixed tail appended
Exercise: for every item that follows, state its recorded protein stability index.
# print the numeric value only

[in] Let me know recorded protein stability index for SKAQELGGAGREDPGLWSRLCRLA [ZSWIM9] , thanks.
[out] 3.38

[in] Let me know recorded protein stability index for VFIISTLAIDFIDEGRLLLEFDLL [SOAT2] , thanks.
[out] 3.03

[in] Let me know recorded protein stability index for RTVKLIRYVSNWDFFIVGCEVIFC [PKD2L1] , thanks.
[out] 2.58

[in] Let me know recorded protein stability index for RNLGSINTELQDVQRIMVANIEEV [SEC22B] , thanks.
[out] 4.05

[in] Let me know recorded protein stability index for TITTAAATSVTVPGAGVPSGSGGT [ZBTB22] , thanks.
[out] 4.85

[in] Let me know recorded protein stability index for LEFFYGIATATEIAYYSYIYSVVD [SLC19A2] , thanks.
[out] 3.27

[in] Let me know recorded protein stability index for VEPPGPGDTVVQGDLQETTVVTGL [PBXIP1] , thanks.
[out] 5.15

[in] Let me know recorded protein stability index for MAALNSQTAVQFQQYAAQQYPGNY [ACBD3] , thanks.
[out] 3.16

[in] Let me know recorded protein stability index for IELNPPEKMALDPYTELRKQPLRK [EFHC1] , thanks.
[out] 4.21

[in] Let me know recorded protein stability index for HVDSIKFCGATIAGLSLLSPSVMR [ALKBH7] , thanks.
[out] 2.19

[in] Let me know recorded protein stability index for QQLYRHGKAYRFLFGFSAVSIMYL [JAGN1] , thanks.
[out] 3.28

* * *

- measurement description: protein stability index of a GFP-peptide fusion (GPS, HEK-293T) (PSI 1-6); higher = more stable
- condition details: treatment: DMSO; c terminus: a fixed tail appended
Please note: T applies when protein stability index is 3 or greater, and F applies otherwise.

[in] Say whether EVENQFILRLPLEHACTVRNLARS [TAF7L] shows protein stability index of 3 or more.
[out] F

[in] Say whether ELERCRQQAGLLVTGEKEEPSRSA [PPEF2] shows protein stability index of 3 or more.
[out] T

[in] Say whether VFIISTLAIDFIDEGRLLLEFDLL [SOAT2] shows protein stability index of 3 or more.
[out] T

[in] Say whether KTVCGYYTSAGTYGLDSVKKKCLE [GMCL1] shows protein stability index of 3 or more.
[out] T

[in] Say whether FDVFSPKQDLVPGSPDDSHPKDGP [DLC1] shows protein stability index of 3 or more.
[out] T

[in] Say whether TWVTVKNGSGDMIFEGNSEKEIPV [CPXM2] shows protein stability index of 3 or more.
[out] T

[in] Say whether LDQLDESLRDKVLQLQKGSDTEAQ [INTS3] shows protein stability index of 3 or more.
[out] T

[in] Say whether LKSMDKNGTMTIDWNEWRDYHLLH [SLC25A25] shows protein stability index of 3 or more.
[out] F

[in] Say whether LELIEPLIKFQVGLKKLNLHEEEH [VDR] shows protein stability index of 3 or more.
[out] F

[in] Say whether QKVAVYRALQAALAESGGSPDVLQ [TRADD] shows protein stability index of 3 or more.
[out] F

[in] Say whether ITTNRFYGPQVNNISHTKEKKKGK [WASL] shows protein stability index of 3 or more.
[out] T

[in] Say whether SNWFVWVTQMNHIPMHIDHDRNMD [FADS1] shows protein stability index of 3 or more.
[out] F

[in] Say whether HVDSIKFCGATIAGLSLLSPSVMR [ALKBH7] shows protein stability index of 3 or more.
[out] F

[in] Say whether VESFKTKVSYLKQKGLGGAMVWAL [CHIT1] shows protein stability index of 3 or more.
[out] F
